target: MERS RBD-hFc (MERS-CoV (isolate EMC/2012)); assay: SPR Biacore, captured mAb, 25 C
measured-quantity: Kd (nM)
Your answer should be a plain number; it is taken to be in nM.

binder	measured-quantity	reported
H1H15208P (antibody, V domains shown) VH: EVQLVESGGDLVQPGGSLRLSCTASGFTFSNYEMNWVRQAPEKGLDWVSFISSSGGAIYYADSVKGRFTISRDNAKNSLYLQMNSLRAEDSAIYFCARSDSGGNSRYWGQGTLVTVSS VL: DIQMTQSPSSVSASVGDRVTVTCRASQDISNWLVWYQQKPGKAPKFLIYAASSLQSGVPSRFSGSGSGTDFTLTISSLQPEDFATYYCQQANSFPPTFGGGTKVEIK	Kd	0.553

Q) Report Kd for H2bM15292N (antibody, V domains shown) VH: QVQLVQSGAEVKKPGSSVKVSCKASGGTFNNYAISWVRQAPGQGLEWMGGIIPFFGTTNYAQKFQDRVTITSDDSTITAYMELSRLRSEDTAVYYCARDEPRRDGYNYYHYYYMDVWGQGTTVTVSS VL: DIQMTQSPSSLSASVGDRVTITCRASQSINSYLNWYQQKPGKAPNLLIYAASSLQSGVPSRFSGSGSGTDFTLTISSLHPEDFATYYCQQSYSTPPITFGQGTRLEIK
A) 0.34
